I'd appreciate it if you could supply % percentage of mass change, Desorption values for the items below.
Assay: Hygroscopicity experiment (DVS)
Format: physicochemical
Details: Cycle 2, target relative humidity 30.0%, 25° C.
Description: 7.1 Hygroscopicity experiment of crystal forms of different salts of compound 2-(2-cyano-5-oxo-8-(trifluoromethyl)pyrazolo[1,5-a]pyrido[3,2-e]pyrimidin-4(5H)-yl)-N-(5-fluoropyridin-2-yl)acetamide 7.1.1 Experimental objective: To investigate the hygroscopicity of crystal forms of different salts of compound 2-(2-cyano-5-oxo-8-(trifluoromethyl)pyrazolo[1,5-a]pyrido[3,2-e]pyrimidin-4(5H)-yl)-N-(5-fluoropyridin-2-yl)acetamide at different relative humidity, so as to provide a basis for storage. […]
Numbers only, in %.

Task item: GET /values?readout=% percentage of mass change, Desorption&item= CCS(=O)(=O)O.N#Cc1cc2n(CC(=O)Nc3ccc(F)cn3)c(=O)c3ccc(C(F)(F)F)nc3n2n1 [Ethanesulfonate (crystal form A)]
Reply: 0.130

Batch request: % percentage of mass change, Desorption for each of the following compounds.
1. CS(=O)(=O)O.N#Cc1cc2n(CC(=O)Nc3ccc(F)cn3)c(=O)c3ccc(C(F)(F)F)nc3n2n1 [Methanesulfonate (crystal form A)]
2. N#Cc1cc2n(CC(=O)Nc3ccc(F)cn3)c(=O)c3ccc(C(F)(F)F)nc3n2n1.O=S(=O)(O)O [Sulfate (crystal form B)]
3. Cl.N#Cc1cc2n(CC(=O)Nc3ccc(F)cn3)c(=O)c3ccc(C(F)(F)F)nc3n2n1 [Hydrochloride (crystal form A)]
4. Br.N#Cc1cc2n(CC(=O)Nc3ccc(F)cn3)c(=O)c3ccc(C(F)(F)F)nc3n2n1 [Hydrobromide (crystal form B)]

Reply:
0.118
0.230
7.191
3.962

# credit: patent US20240376108A1
